- System: Escherichia coli TOP10
- assayMethodText: shrunken log2 fold change of peptide-encoding DNA abundance (4.5 h post-induction vs induction); higher = less antimicrobial activity (less host growth inhibition)
- conditionDescription: time post-induction: 4.5 h; library: site-saturation at positions 5, 18, 19, 20
measuredParameter: shrunken log2 fold change
Give bare numbers.

The cases that follow already have their shrunken log2 fold change on record.
RRIRARPPRLPRPRPRPYYFPRP : -0.701
RRIRGRPPRLPRPRPRPWHHPRP : -0.26
RRIRTRPPRLPRPRPRPLPQPRP : 0.165
RRIRLRPPRLPRPRPRPSAKPRP : -0.0639
RRIRQRPPRLPRPRPRPWRRPRP : 0.241
RRIRLRPPRLPRPRPRPTELPRP : -0.118

Give one value of shrunken log2 fold change per listed sequence.
1. RRIRCRPPRLPRPRPRPYDPPRP
2. RRIRHRPPRLPRPRPRPRLTPRP

Return:
-0.914
-0.176

----------
- System: Escherichia coli TOP10
- assayMethodText: shrunken log2 fold change of peptide-encoding DNA abundance (4.5 h post-induction vs induction); higher = less antimicrobial activity (less host growth inhibition)
- conditionDescription: time post-induction: 4.5 h; library: site-saturation at positions 5, 18, 19, 20
measuredParameter: shrunken log2 fold change
Answers are plain numbers.

RRIRERPPRLPRPRPRPVFKPRP : -0.228

Hi, could you look up shrunken log2 fold change for each item in my list?
1. RRIRQRPPRLPRPRPRPSQTPRP
2. RRIRCRPPRLPRPRPRPTNNPRP
3. RRIRQRPPRLPRPRPRPWPCPRP
4. RRIRFRPPRLPRPRPRPGFMPRP
5. RRIRQRPPRLPRPRPRPSCFPRP
6. RRIRYRPPRLPRPRPRPCARPRP
7. RRIRERPPRLPRPRPRPPVHPRP
8. RRIRTRPPRLPRPRPRPDPLPRP

Return:
1: -0.083; 2: -0.619; 3: -0.0164; 4: -0.242; 5: -0.529; 6: -0.0708; 7: -0.145; 8: -0.145

Hey, can you go through the list below and give me shrunken log2 fold change for every item?
1. RRIRTRPPRLPRPRPRPNPNPRP
2. RRIRERPPRLPRPRPRPIFTPRP
3. RRIRQRPPRLPRPRPRPEFEPRP
4. RRIRPRPPRLPRPRPRPEFWPRP
5. RRIRPRPPRLPRPRPRPGRGPRP

Return:
[-0.306, -0.195, -0.0193, 0.583, 0.611]

// field: shrunken log2 fold change; key: RRIRCRPPRLPRPRPRPRTSPRP ; value = 0.00938

----------
- System: Escherichia coli TOP10;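 note: peptides expressed intracellularly from a pBAD plasmid library in pooled LB shake-flask culture, induced with 0.3% L-arabinose, DNA abundance read by NGS, three biological replicates, DESeq2 with apeglm shrinkage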
- assayMethodText: shrunken log2 fold change of peptide-encoding DNA abundance (4.5 h post-induction vs induction); higher = less antimicrobial activity (less host growth inhibition)
- conditionDescription: time post-induction: 4.5 h; library: site-saturation at positions 5, 18, 19, 20
Please respond with reported shrunken log2 fold change for every item in the list.

Example sequences with recorded shrunken log2 fold change:
RRIRVRPPRLPRPRPRPVVPPRP : 0.132
RRIRPRPPRLPRPRPRPPWSPRP : 0.00901
RRIRLRPPRLPRPRPRPTGFPRP : -0.158

I'm hoping you can list shrunken log2 fold change for every sequence here, please.
1. RRIRIRPPRLPRPRPRPDQSPRP
2. RRIRPRPPRLPRPRPRPNNHPRP
3. RRIRVRPPRLPRPRPRPSINPRP
4. RRIRHRPPRLPRPRPRPYFWPRP

Return:
1. -0.138
2. -0.607
3. -0.243
4. -0.258

Briefly, shrunken log2 fold change measured for RRIRNRPPRLPRPRPRPHVQPRP : -0.0883
